Reported 10% serum EC50 (Jurkat cell viability, CellTiter-Glo) values for the following binders.
targetOrSystem: human serum proteins (binding ascribed fully to human serum albumin, HSA) (human, UniProt P02768 25-609)
Sequence (P02768 25-609 limits assumed): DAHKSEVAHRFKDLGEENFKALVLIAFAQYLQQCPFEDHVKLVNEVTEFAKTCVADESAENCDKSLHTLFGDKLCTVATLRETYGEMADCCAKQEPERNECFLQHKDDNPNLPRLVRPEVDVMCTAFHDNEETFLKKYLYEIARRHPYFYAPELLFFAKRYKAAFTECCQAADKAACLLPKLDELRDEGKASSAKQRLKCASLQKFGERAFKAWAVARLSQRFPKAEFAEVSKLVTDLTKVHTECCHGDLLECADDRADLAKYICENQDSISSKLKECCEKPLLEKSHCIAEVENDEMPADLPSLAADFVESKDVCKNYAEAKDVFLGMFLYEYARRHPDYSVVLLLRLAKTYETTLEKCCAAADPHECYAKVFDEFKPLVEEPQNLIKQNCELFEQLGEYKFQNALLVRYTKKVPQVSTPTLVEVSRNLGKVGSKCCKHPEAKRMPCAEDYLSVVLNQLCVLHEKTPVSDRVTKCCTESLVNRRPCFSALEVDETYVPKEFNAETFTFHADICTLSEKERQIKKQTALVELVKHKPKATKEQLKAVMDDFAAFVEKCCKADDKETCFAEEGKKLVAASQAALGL
methodSummary: cell-based or functional assay
Bridge positions count the residues as written; N and C are the ends. Square brackets hold non-standard residues; d marks the D form. S5 = C=CCCC[C@](C)(N)C(=O)O; Nle = CCCC[C@H](N)C(=O)O; Aib = CC(C)(N)C(=O)O
metricName: 10% serum EC50 (Jurkat cell viability, CellTiter-Glo) (µM)

[
  {
    "binder": "Ac-RWIAQALR[S5]IGD[S5]FNAFYARR-NH2 (staple 9-13) [Compound 14 (crosslinked polypeptide derived from human BIM BH3)]",
    "readingQualifier": "=",
    "endpointValue": 10.8
  },
  {
    "binder": "Ac-DIARNIARHLA[S5]V[Aib]D[S5][Nle]ARSI-NH2 (staple 12-16) [Compound 3 (crosslinked polypeptide derived from human BID BH3)]",
    "readingQualifier": "=",
    "endpointValue": 88.9
  },
  {
    "binder": "Ac-ERLRRRI[S5]LAR[S5]HHST-NH2 (staple 8-12, also called hMAML) [Compound 18 (crosslinked polypeptide derived from human MAML peptide sequence)]",
    "readingQualifier": ">",
    "endpointValue": 100
  },
  {
    "binder": "Ac-DAARNIARHLA[S5]V[Aib]D[S5][Nle]ARSI-NH2 (staple 12-16) [Compound 2 (crosslinked polypeptide derived from human BID BH3)]",
    "readingQualifier": "=",
    "endpointValue": 97.1
  },
  {
    "binder": "Ac-DIIRNIARHLA[S5]VGD[S5][Nle]DRSI-NH2 (staple 12-16) [Compound 1 (crosslinked polypeptide derived from human BID BH3)]",
    "readingQualifier": ">",
    "endpointValue": 100
  },
  {
    "binder": "Ac-RWIAQQLR[S5]IGD[S5]FNAYYARR-NH2 (staple 9-13) [Compound 13 (crosslinked polypeptide derived from human BIM BH3)]",
    "readingQualifier": "=",
    "endpointValue": 21.5
  }
]
